Reference source for all entries: IntAct's records for PubMed 23803857

B1: C-type lectin domain family 2 member A (Homo sapiens), Q6UVW9 (parent)
chain: MINPELRDGRADGFIHRIVPKLIQNWKIGLMCFLSIIITTVCIIMIATWSKHAKPVACSGDWLGVRDKCFYFSDDTRNWTASKIFCSLQKAELAQIDTQEDMEFLKRYAGTDMHWIGLSRKQGDSWKWTNGTTFNGWFEIIGNGSFAFLSADGVHSSRGFIDIKWICSKPKYFL
partner: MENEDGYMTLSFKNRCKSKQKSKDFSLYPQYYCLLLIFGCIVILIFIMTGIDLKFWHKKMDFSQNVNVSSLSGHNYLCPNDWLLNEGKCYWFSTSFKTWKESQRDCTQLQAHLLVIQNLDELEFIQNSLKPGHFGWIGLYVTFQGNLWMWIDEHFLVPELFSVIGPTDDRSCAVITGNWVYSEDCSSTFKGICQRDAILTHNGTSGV

# Variants of: B1
# experimentalSetup: with klrf2_human KLRF2, D3W0D1

| variantKey | effect of a mutation on the interaction |
| --- | --- |
| T111A;D112A;M113A | with no effect |
| D152A | with no effect |
